Tested on: Plasmodium berghei
protocol.text: Screen against P. berghei liver stage (PbLuc), transformed with Luciferase, at 10uM
Assay type: functional, HepG2
stated.conditions: tested at 10 uM
Out of some 69,000 compounds screened, about 8,600 (12%) showed an effect of 50% or more. What follows is part of a selection rich in strong results, with near analogues and random picks from the rest.
Recorded INHIBITION values for a group of molecules are listed next.

# count of solved cases: 2
O=C1CCN(C(=O)NCc2ccccc2Oc2ccccc2)CCN1 :: 11.4%
Cc1nccnc1C1CCN(C(=O)C(C)C)CC1 :: 29.35%

# context switch: different molecule, same INHIBITION
With Plasmodium berghei as the test system, CCC(C)(C)n1nnnc1C(c1cccs1)N1CCCCC1 (stereo unspecified) showed INHIBITION of 21.7%

Data provenance is ChEMBL document CHEMBL4513216.
